target: human cloned 5-HT6 receptors (Homo sapiens); assay: 5-HT6 binding affinity, [3H]-LSD displacement in membranes of Hela cells
Sequence (P50406 whole entry): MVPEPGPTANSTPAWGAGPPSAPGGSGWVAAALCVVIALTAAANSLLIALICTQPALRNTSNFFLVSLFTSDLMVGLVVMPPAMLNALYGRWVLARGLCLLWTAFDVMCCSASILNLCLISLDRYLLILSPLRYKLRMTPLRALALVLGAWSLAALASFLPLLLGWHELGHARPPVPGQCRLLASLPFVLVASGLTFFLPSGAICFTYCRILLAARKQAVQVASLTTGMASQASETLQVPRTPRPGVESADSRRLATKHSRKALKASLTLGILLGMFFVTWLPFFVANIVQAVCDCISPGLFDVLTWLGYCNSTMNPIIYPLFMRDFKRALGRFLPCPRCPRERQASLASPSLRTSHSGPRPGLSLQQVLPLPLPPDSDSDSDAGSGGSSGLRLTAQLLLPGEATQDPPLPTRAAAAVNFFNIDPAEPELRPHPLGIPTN
EXPERIMENTAL ENDPOINT: pKi
Note: pKi values are expressed as the negative base-10 logarithm of concentration in M.

INPUT: Please report the recorded pKi for `COc1ccc(OC)c(S(=O)(=O)c2cn(CCN)c3ncccc23)c1` .
OUTPUT: 8.44
